# tgt: purified recombinant PfM18AAP (Plasmodium falciparum)
# Sequence (Q8I2J3 1-570): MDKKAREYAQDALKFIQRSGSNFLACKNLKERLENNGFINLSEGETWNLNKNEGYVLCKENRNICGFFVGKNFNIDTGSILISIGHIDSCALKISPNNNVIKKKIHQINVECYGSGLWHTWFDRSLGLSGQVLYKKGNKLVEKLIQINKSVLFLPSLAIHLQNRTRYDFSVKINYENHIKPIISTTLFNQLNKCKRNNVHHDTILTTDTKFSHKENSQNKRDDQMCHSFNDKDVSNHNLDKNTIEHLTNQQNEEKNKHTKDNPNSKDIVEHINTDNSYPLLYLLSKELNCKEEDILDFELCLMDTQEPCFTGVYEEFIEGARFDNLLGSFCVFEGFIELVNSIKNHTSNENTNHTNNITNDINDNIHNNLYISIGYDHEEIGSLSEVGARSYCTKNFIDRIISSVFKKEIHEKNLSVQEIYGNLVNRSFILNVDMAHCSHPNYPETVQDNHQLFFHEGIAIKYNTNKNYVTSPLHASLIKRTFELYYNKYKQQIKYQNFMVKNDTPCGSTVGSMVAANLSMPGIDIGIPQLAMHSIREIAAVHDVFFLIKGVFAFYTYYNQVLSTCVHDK
# assayText: Ki determination and mode of inhibition
# Format: biochemical
readout: Ki (nM)
Write it as a number; the unit nM goes unstated.

Form field: reported Ki of Oc1ccc(CCNc2c3ccccc3nc3ccccc23)cc1O
1350
